Test System: PLK2 (Homo sapiens (Human), UniProt Q9NYY3)
Sequence (Q9NYY3 whole entry): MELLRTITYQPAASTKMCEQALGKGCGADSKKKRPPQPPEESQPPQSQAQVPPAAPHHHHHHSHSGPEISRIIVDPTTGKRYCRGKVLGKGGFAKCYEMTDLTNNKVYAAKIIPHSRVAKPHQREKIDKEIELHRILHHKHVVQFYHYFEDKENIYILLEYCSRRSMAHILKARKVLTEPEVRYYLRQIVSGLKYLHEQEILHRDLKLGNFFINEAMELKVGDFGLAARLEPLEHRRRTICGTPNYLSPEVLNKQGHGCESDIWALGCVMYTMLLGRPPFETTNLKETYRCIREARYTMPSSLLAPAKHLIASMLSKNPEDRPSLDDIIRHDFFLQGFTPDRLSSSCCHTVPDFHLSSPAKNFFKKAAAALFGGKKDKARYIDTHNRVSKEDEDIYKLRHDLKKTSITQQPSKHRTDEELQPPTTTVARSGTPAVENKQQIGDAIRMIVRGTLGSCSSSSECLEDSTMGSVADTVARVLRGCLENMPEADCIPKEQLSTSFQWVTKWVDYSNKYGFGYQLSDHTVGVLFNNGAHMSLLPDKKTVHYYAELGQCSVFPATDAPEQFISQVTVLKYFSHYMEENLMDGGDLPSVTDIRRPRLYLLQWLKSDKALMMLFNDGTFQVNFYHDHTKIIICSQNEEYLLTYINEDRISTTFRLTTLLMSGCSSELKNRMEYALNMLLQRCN
Value Type: IC50 (µM)
Give bare numbers, in µM.

Observed IC50 on PLK2 (Homo sapiens (Human), UniProt Q9NYY3), entry Cn1c(=O)c(S(=O)(=O)c2ccc(F)cc2F)cc2cnc(Nc3ccc4[nH]ccc4c3)nc21 , equals 0.201

* * *

What melting point was measured for each of the following?

Lab note: each compound below needs its melting point filled in.
1. Cc1ccc(S(=O)(=O)c2cc3cnc(Nc4ccc5ncccc5c4)nc3n(C)c2=O)cc1 [Example 15]
2. COc1ccc(Nc2ncc3cc(S(=O)(=O)c4ccc(C)cc4)c(=O)n(C)c3n2)cc1 [Example 20]
3. CN1CCN(CCNc2ncc3cc(S(=O)(=O)c4ccc(Cl)cc4)c(=O)n(C)c3n2)CC1 [Example 9]
4. CSc1ncc2cc(S(=O)(=O)c3ccc(Cl)cc3)c(=O)n(C3CCCC3)c2n1 [Example 60]
5. Cn1c(=O)c(S(=O)(=O)c2ccc(F)c(Cl)c2)cc2cnc(Nc3cccc4[nH]ccc34)nc21 [Example 34]

Completion:
1. 325 to 330 °C
2. 336 to 340 °C
3. 176 to 180 °C
4. 222 to 223 °C
5. 315 to 320 °C

Short answer for O=c1c(S(=O)(=O)c2ccccc2)cc2cnc(Nc3ccc(N4CCOCC4)cc3)nc2n1C1CCCC1 [Example 63] : melting point was 221 to 222 °C

* * *

Test System: FGFR3 (Homo sapiens (Human))
Sequence (P22607 23-806): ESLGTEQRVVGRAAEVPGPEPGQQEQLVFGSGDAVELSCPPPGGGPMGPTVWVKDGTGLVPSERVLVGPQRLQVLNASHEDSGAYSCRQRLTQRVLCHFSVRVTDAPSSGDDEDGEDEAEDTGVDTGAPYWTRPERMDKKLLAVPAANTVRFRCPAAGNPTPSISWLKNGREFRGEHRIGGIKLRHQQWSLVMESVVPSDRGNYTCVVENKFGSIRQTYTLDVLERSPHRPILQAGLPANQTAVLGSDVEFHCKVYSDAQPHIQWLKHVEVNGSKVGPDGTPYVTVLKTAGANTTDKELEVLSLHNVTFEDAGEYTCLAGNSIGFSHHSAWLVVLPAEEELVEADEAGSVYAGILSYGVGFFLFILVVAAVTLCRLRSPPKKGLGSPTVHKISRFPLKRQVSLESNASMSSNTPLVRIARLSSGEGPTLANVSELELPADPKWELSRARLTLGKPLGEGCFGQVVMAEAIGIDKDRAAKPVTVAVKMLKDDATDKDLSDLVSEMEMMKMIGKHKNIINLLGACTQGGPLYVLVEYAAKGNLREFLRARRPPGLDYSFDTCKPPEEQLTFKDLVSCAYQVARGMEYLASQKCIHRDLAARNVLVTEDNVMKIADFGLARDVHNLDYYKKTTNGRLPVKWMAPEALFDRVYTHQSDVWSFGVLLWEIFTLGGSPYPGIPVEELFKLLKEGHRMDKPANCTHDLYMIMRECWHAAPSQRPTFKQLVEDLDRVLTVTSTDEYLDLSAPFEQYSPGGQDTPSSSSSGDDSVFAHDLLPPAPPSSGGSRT
Value Type: IC50 (µM)
Numbers only, in µM.

Short answer for Cn1c(=O)c(S(=O)(=O)c2ccc(F)cc2F)cc2cnc(Nc3ccc4[nH]ccc4c3)nc21 : IC50 was 9

* * *

What melting point was measured for each of the following?

Use the examples below as a reference point.
{"Compound Structure String": "O=c1c(S(=O)(=O)c2ccccc2)cc2cnc(N3CCN(c4ccc(C(F)(F)F)cn4)CC3)nc2n1C1CCCC1", "melting point": "258 to 259 °C"}
{"Compound Structure String": "Cn1c(=O)c(S(=O)(=O)c2ccc(Cl)cc2)cc2cnc(Nc3cnc4ccccc4c3)nc21", "melting point": "304 to 306 °C"}
{"Compound Structure String": "O=c1c(S(=O)(=O)c2ccc(Cl)cc2)cc2cnc(Nc3cccc4[nH]ccc34)nc2n1C1CCCCC1", "melting point": "300 to 302 °C"}
{"Compound Structure String": "Cn1c(=O)c(S(=O)(=O)c2ccc(Cl)cc2)cc2cnc(Nc3cnc4[nH]ccc4c3)nc21", "melting point": "296 to 298 °C"}
{"Compound Structure String": "O=c1c(S(=O)(=O)c2ccc(Cl)cc2)cc2cnc(Nc3ccc4[nH]ccc4c3)nc2n1C1CCCCC1", "melting point": "305 to 307 °C"}

Lab note: each molecule below needs its melting point filled in.
1. CCn1c(=O)c(S(=O)(=O)c2ccccc2)cc2cnc(Nc3ccc4[nH]ccc4c3)nc21
2. COc1ccc(S(=O)(=O)c2cc3cnc(Nc4ccc5[nH]ccc5c4)nc3n(C)c2=O)cc1

Completion:
> 400 °C
260 to 262 °C

* * *

Test System: UniProt:Q15418
Sequence (Q15418 whole entry): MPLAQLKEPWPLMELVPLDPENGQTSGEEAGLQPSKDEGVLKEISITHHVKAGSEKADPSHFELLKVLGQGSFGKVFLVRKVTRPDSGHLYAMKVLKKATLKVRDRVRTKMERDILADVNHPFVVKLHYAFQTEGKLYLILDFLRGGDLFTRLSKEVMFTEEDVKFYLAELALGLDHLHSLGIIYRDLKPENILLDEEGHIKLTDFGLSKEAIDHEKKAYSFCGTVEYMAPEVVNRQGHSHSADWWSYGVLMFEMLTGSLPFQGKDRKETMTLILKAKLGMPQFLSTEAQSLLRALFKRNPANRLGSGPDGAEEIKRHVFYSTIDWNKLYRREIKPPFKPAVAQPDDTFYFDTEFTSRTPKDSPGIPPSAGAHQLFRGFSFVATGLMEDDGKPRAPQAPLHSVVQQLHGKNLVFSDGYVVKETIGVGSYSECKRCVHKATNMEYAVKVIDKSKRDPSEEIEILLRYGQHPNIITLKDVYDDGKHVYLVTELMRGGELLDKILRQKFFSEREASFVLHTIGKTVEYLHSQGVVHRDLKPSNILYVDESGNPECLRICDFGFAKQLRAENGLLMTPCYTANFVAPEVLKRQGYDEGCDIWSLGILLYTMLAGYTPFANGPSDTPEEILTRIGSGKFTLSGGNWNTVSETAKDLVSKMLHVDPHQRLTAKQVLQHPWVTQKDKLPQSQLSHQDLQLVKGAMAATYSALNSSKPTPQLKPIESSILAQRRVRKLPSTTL
Value Type: pIC50
One number for each entry, as −log10 of the molar value.

Short answer for Cn1c(=O)c(S(=O)(=O)c2ccc(F)cc2F)cc2cnc(Nc3ccc4[nH]ccc4c3)nc21 : pIC50 was 5.37

Origin of values: patent US8889696B2
